# assayMethodText: chemical genetic growth profiling, strain panel (AID 1159580);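 further: tested at 20 µM; growth read once vehicle control cultures reached saturation at 30 °C; 1 = growth at the plate median or of vehicle wells; lower values mean less growth of the strain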
# appliedConditions: S. cerevisiae deletion strains, growth OD, locus YBR171W, strain sec66, stronger effect = lower value
About 2,000 (36%) of roughly 5,500 compounds were called active. Not shown: some 18% with an inconclusive outcome. Some of the results follow.
Listed here: items and their measured normalized growth.
Answer with a number only.

Completed entries (count: 2):
compound	assayValue
CN(C)CC[C@H](c1ccc(Cl)cc1)c1ccccn1	0.998
COc1cc2c(cc1OC)-c1c(oc3cc(O)cc(O)c3c1=O)CO2	1.03

Enquiry: Could you tell me which normalized growth is on file for `COc1ccc(-c2cc(=O)c3c(O)cc(O)c(-c4cc(-c5cc(=O)c6c(O)cc(O)cc6o5)ccc4OC)c3o2)cc1` ?
Return: 1.02

Enquiry: Please answer likewise for `COc1cc(C(=O)N2CCOCC2)cc(OC)c1OC`
Return: 0.972

Enquiry: Please answer likewise for `COc1cc(O)c2c(=O)cc(-c3ccc(OC)c(-c4c(O)cc(O)c5c(=O)cc(-c6ccc(O)cc6)oc45)c3)oc2c1`
Return: 1.03

Enquiry: Please answer likewise for `CC(C)c1cccc(O)c(=O)c1`
Return: 0.0935

Enquiry: Please answer likewise for `O=c1c(O)cc([C@H]2Oc3cc(O)cc(O)c3C[C@H]2O)cc2c([C@H]3Oc4cc(O)cc(O)c4C[C@H]3O)cc(O)c(O)c12`
Return: 1.06

Enquiry: Please answer likewise for C[C@@H](CO)NC(=O)C1C=C2c3cccc4[nH]cc(c34)C[C@H]2N(C)C1 (stereo not given in full)
Return: 1.02

Enquiry: Please answer likewise for `CN(C)C(=O)C(CCN1CCC(O)(c2ccc(Cl)cc2)CC1)(c1ccccc1)c1ccccc1`
Return: 0.988

Enquiry: Please answer likewise for `Oc1ccc([C@H]2Oc3cc(O)cc(O)c3C[C@H]2O)cc1`
Return: 0.969

* * *

# assayMethodText: chemical genetic growth profiling, strain panel (AID 1159580);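 further: tested at 20 µM; growth read once vehicle control cultures reached saturation at 30 °C; 1 = growth at the plate median or of vehicle wells; lower values mean less growth of the strain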
# appliedConditions: S. cerevisiae deletion strains, growth OD, locus YIL066C, strain RNR3, stronger effect = lower value
Among all 5,500 compounds or so, about 2,000 (36%) were called active. Inconclusive results (about 18%) are left out. The list shows a part of the results.
Listed here: items and their measured normalized growth.
Answer with a number only.

compound	metric	assayValue
CO[C@H]1[C@H](O)[C@@H](O[C@H]2CC[C@]3(C=O)C4CC[C@]5(C)[C@@H](C6=CC(=O)OC6)CC[C@]5(O)C4CC[C@@H]3C2)O[C@@H](C)[C@@H]1O (stereo not given in full)	normalized growth	0.968
C[C@H]1OC(O[C@H]2[C@@H](O)CC(O[C@H]3[C@@H](O)C[C@H](O[C@H]4CC[C@]5(C)C6CC[C@]7(C)[C@@H](C8=CC(=O)OC8)[C@@H](O)C[C@]7(O)[C@@H]6CC[C@@H]5C4)O[C@@H]3C)O[C@@H]2C)C[C@H](O)C1O (stereo not given in full)	normalized growth	1
C[C@]12CCC3C(CC[C@]4(O)C[C@@H](O)CC[C@]34C=O)[C@@]1(O)CCC2C1=CC(=O)OC1 (stereo not given in full)	normalized growth	0.95
C[C@H]1O[C@@H](O[C@H]2[C@@H](O)C[C@H](O[C@H]3[C@@H](O)C[C@H](O[C@H]4CC[C@]5(C)C6C[C@@H](O)[C@]7(C)[C@@H](C8=CC(=O)OC8)CC[C@]7(O)C6CC[C@@H]5C4)O[C@@H]3C)O[C@@H]2C)C[C@H](O)[C@@H]1O (stereo not given in full)	normalized growth	1

Enquiry: Could you tell me which normalized growth is on file for CC12CCC3C(CCC4(O)CC(O)CCC34/C=N/NC(N)=O)C1(O)CCC2C1=CC(=O)OC1 (stereo not given) ?
Return: 1.04
